Sourced from patent US8623859B2

Known IC50 of a selection of molecules
# measurement.target: human B1 (Homo sapiens, UniProt P46663)
# Sequence (P46663 whole entry): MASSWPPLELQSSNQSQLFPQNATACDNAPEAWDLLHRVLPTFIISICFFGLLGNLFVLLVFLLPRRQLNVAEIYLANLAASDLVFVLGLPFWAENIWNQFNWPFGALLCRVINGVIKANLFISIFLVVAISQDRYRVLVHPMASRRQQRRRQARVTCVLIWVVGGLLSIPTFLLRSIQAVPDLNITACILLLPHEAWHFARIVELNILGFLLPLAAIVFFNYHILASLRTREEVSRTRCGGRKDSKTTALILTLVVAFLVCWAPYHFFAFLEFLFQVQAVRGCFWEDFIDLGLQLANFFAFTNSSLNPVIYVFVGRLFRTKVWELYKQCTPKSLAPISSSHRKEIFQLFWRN
# assay.overview: Calcium flux assay for Bradykinin B1 antagonist, CHO-K1 cell line expressing human B1
# measurement.conditions: CHO-K1 cells expressing human B1, agonist Lys-(Des-Arg)-Bradykinin, read-out: Potency (IC50 value against human B1)
Counter-ions that a name gives are not always drawn.

- molecule: "COc1cc(C)c(S(=O)(=O)N(C)Cc2cc(C(=O)NCc3ccc(CN4CCCCC4C)cc3)co2)c(C)c1 (stereo not shown) [Ex 99, trifluoroacetate]"
  IC50: "100 to 1000 nM"
- molecule: "COc1cc(C)c(S(=O)(=O)N(Cc2cc(C(=O)N3CCN(CC(=O)Nc4cccnc4)CC3)co2)C2CC2)c(C)c1 [Ex 117, trifluoroacetate]"
  IC50: "100 to 1000 nM"
- molecule: "COc1cc(C)c(S(=O)(=O)N(C)Cc2cc(C(=O)NCc3cc(CN4CCCC4)ccc3F)co2)c(C)c1 [Ex 151, trifluoroacetate]"
  IC50: "100 to 1000 nM"
- molecule: "COc1cc(C)c(S(=O)(=O)N(Cc2nc(C(=O)N(C)Cc3ccc(CN4CCCC(OC)C4)cc3)co2)C2CC2)c(C)c1 (stereo not shown)"
  IC50: "< 10 nM"
- molecule: "COc1cc(C)c(S(=O)(=O)N(C)Cc2nnc(C(=O)N(C)Cc3ccc(CN4CCC(OC)CC4)cc3)o2)c(C)c1"
  IC50: "10 to 100 nM"

# query: IC50 of entry "COc1cc(C)c(S(=O)(=O)N(C)Cc2cc(C(=O)N(C)Cc3ccc(C4=NCCN4)cc3)c(C)o2)c(C)c1" 10 to 100 nM

Now the molecule COc1cc(C)c(S(=O)(=O)N(Cc2cc(C(=O)N(C)Cc3ccc(CN4CCCC(O)C4)cc3)co2)C2CC2)c(C)c1 (stereo not shown) < 10 nM

What do you have for COc1cc(C)c(S(=O)(=O)N(Cc2noc(C(=O)N3CCN(CC4CCCN(C)C4)CC3)n2)C2CC2)c(C)c1 (stereo not shown) ? 10 to 100 nM

Another molecule to look at: "CCc1cc(Br)ccc1S(=O)(=O)N(C)Cc1cc(C(=O)N2CCCN(CCCN3CCCC3)CC2)co1" 10 to 100 nM

Lookup "COc1cc(C)c(S(=O)(=O)N(C)Cc2nc(C(=O)N3CCN(CCCN4CCCC4)CC3)no2)c(C)c1" 10 to 100 nM

// repeat for "CN(Cc1cc(C(=O)NCCc2ccc(C3=NCCN3)cc2)co1)S(=O)(=O)c1c(Cl)cc(Br)cc1Cl" and report 100 to 1000 nM

Okay, and CN(Cc1ccc(CN2CCCC2)cc1)C(=O)c1coc(CN(C2CC2)S(=O)(=O)c2ccccc2C(F)(F)F)n1 [Ex 222, trifluoroacetate] ? 100 to 1000 nM
